tested on: CD2F1 mice, L1210 leukemia ip, survival T/C; assay: NCI In Vivo Anticancer Drug Screen. Data for tumor model L1210 Leukemia (intraperitoneal) in CD2F1 (CDF1) mice; settings: endpoint: mean survival time; dose: 6.25 mg/kg/injection; schedule: Q01DX009 (ip); vehicle: saline sonified; higher = longer survival
Inconclusive results and toxic doses are left out.
MEASUREMENT_LABEL: T/C

Entry `CN1CCCN(C)C1c1cc([N+](=O)[O-])ccc1O` , T/C reported as 100 % of control

Entry `ClCC(CCl)N1CCCCC1` , T/C reported as 102 % of control

Entry `Cc1cc[n+](C)c(-c2ccccc2)c1` , T/C reported as 100 % of control

Entry O=C1OC(c2ccccc2)CC1N1CCCCC1 (centres undefined) , T/C reported as 92 % of control

----------
tested on: CD2F1 mice, L1210 leukemia ip, survival T/C; assay: NCI In Vivo Anticancer Drug Screen. Data for tumor model L1210 Leukemia (intraperitoneal) in CD2F1 (CDF1) mice; conditions: endpoint: mean survival time; dose: 200.0 mg/kg/injection; schedule: Q04DX003 (ip); vehicle: saline; higher = longer survival
Toxic doses and inconclusive results are not listed.
MEASUREMENT_LABEL: T/C

Record `CC(C)(CO)NC(=O)CCO` / CD2F1 mice, L1210 leukemia ip, survival T/C, T/C recorded as 98 % of control

Record `CC(C)S(=O)(=O)/C=C(\I)c1ccccc1` / CD2F1 mice, L1210 leukemia ip, survival T/C, T/C recorded as 102 % of control

Record CC(C)C([N+](C)(C)C)P(=O)([O-])O (configuration not stated) / CD2F1 mice, L1210 leukemia ip, survival T/C, T/C recorded as 96 % of control

Record `ON(C(=Nc1ccc(Cl)cc1)c1ccccc1)c1ccccc1` / CD2F1 mice, L1210 leukemia ip, survival T/C, T/C recorded as 102 % of control

Record `Cc1ccc(N=Cc2cc(I)cc(I)c2O)cc1.Cc1ccc(N=Cc2cc(I)cc(I)c2O)cc1.[Co]` / CD2F1 mice, L1210 leukemia ip, survival T/C, T/C recorded as 96 % of control

Record `N#CC(CCN1CCCCC1)(c1ccccc1)c1ccccc1` / CD2F1 mice, L1210 leukemia ip, survival T/C, T/C recorded as 102 % of control

Record CCOC(=O)C(CC)CO (configuration not stated) / CD2F1 mice, L1210 leukemia ip, survival T/C, T/C recorded as 103 % of control

Record `CC(=O)OCc1ccc(/C=N/Nc2ccc([N+](=O)[O-])cc2[N+](=O)[O-])cc1Br` / CD2F1 mice, L1210 leukemia ip, survival T/C, T/C recorded as 108 % of control

Record CC(C)=CC1C(C(=O)OCc2ccc(C)cc2C)C1(C)C (configuration not stated) / CD2F1 mice, L1210 leukemia ip, survival T/C, T/C recorded as 87 % of control

Record `CC(C)NC(=O)CCn1c(=O)c2ccccc2c(=O)n1C` / CD2F1 mice, L1210 leukemia ip, survival T/C, T/C recorded as 106 % of control

Record COC1CC2c3ccccc3C1C(C)=[N+]2C (configuration not stated) / CD2F1 mice, L1210 leukemia ip, survival T/C, T/C recorded as 95 % of control

Record `CNC(=O)OCCN(C)OC` / CD2F1 mice, L1210 leukemia ip, survival T/C, T/C recorded as 98 % of control

Record CC1CCCCC1O (configuration not stated) / CD2F1 mice, L1210 leukemia ip, survival T/C, T/C recorded as 103 % of control

Record CCOC(=O)C(N)CSCc1ccccc1 (configuration not stated) / CD2F1 mice, L1210 leukemia ip, survival T/C, T/C recorded as 97 % of control

Record `Cn1c(=O)c2c(ncn2C)n(C)c1=O.[Cl][Pt]([Cl])[Cl]` / CD2F1 mice, L1210 leukemia ip, survival T/C, T/C recorded as 111 % of control

Record `CCNc1cc(Cl)c(C(=O)O)cc1[N+](=O)[O-]` / CD2F1 mice, L1210 leukemia ip, survival T/C, T/C recorded as 110 % of control

Record `S=C(N/N=C1\C=Cc2ccccc2C1)N/N=C1\C=Cc2ccccc2C1` / CD2F1 mice, L1210 leukemia ip, survival T/C, T/C recorded as 93 % of control

----------
test system: CD2F1 mice, L1210 leukemia ip, survival T/C; experiment: NCI In Vivo Anticancer Drug Screen. Data for tumor model L1210 Leukemia (intraperitoneal) in CD2F1 (CDF1) mice; details: endpoint: mean survival time; dose: 200.0 mg/kg/injection; schedule: Q01DX009 (ip); vehicle: saline
Inconclusive results and toxic doses are left out. How the source made its calls: active means survival T/C of 150% or more; inactive means T/C below 125% in these data.
Classes to choose from: active, inactive

For this compound, state the assay outcome: CCCC(O)C[N+](=O)[O-] (stereo not given)
inactive

For this compound, state the assay outcome: NC(COC(c1ccccc1)(c1ccccc1)c1ccccc1)C(=O)O (stereo not given)
active

For this compound, state the assay outcome: CC1(C)OCC(COCc2ccccc2)O1 (stereo not given)
inactive

For this compound, state the assay outcome: C=C1C(=O)OC2CCCCCCC12 (stereo not given)
inactive

For this compound, state the assay outcome: NC(CCC(=O)NC(CSC(c1ccccc1)(c1ccccc1)c1ccc(F)cc1)C(=O)NCC(=O)O)C(=O)O (stereo not given)
active

----------
test system: CD2F1 mice, L1210 leukemia ip, survival T/C; assay: NCI In Vivo Anticancer Drug Screen. Data for tumor model L1210 Leukemia (intraperitoneal) in CD2F1 (CDF1) mice; settings: endpoint: mean survival time; dose: 50.0 mg/kg/injection; schedule: Q04DX003 (ip); vehicle: saline; higher = longer survival
Inconclusive results and toxic doses are left out.
MEASUREMENT_LABEL: T/C

Entry `CC(=O)Oc1ccccc1N(C(C)=O)S(=O)(=O)c1ccc(C)cc1` , T/C reported as 98 % of control

Entry CC[N+]1(C2CCC3CCC2C3O)CCOCC1 (configuration not stated) , T/C reported as 97 % of control

Entry `Cc1cc[n+](CCc2ccccc2)cc1` , T/C reported as 96 % of control

Entry `CCCCNCCN(CC)CC` , T/C reported as 89 % of control

Entry [N-]=[N+]=CC(=O)CCC(N)C(=O)O (configuration not stated) , T/C reported as 122 % of control

Entry `Cc1ccc(N=Cc2cc(I)cc(I)c2O)cc1.Cc1ccc(N=Cc2cc(I)cc(I)c2O)cc1.[Co]` , T/C reported as 87 % of control

Entry `NCCCNCCNCCCN` , T/C reported as 101 % of control

----------
tested on: CD2F1 mice, L1210 leukemia ip, survival T/C; test: NCI In Vivo Anticancer Drug Screen. Data for tumor model L1210 Leukemia (intraperitoneal) in CD2F1 (CDF1) mice; details: endpoint: mean survival time; dose: 100.0 mg/kg/injection; schedule: Q01DX005 (ip); vehicle: water; higher = longer survival
Inconclusive results and toxic doses are left out.
MEASUREMENT_LABEL: T/C

Entry CC(=O)N(c1nc(Cl)c2cc[nH]c2n1)C1OC(CO)C(O)C1O (stereo not given) , T/C reported as 101 % of control

Entry CC1OC(O)CC(NC(=O)C(F)(F)F)C1O (stereo not given) , T/C reported as 98 % of control

Entry Cc1cc(C(O)CNCCn2cnc3c2c(=O)n(C)c(=O)n3C)ccc1O (stereo not given) , T/C reported as 100 % of control

Entry CCCC(=O)Nc1ncnc2c1nc(NC(=O)CCC)n2C1OC2COP(=O)(O)OC2C1OC(=O)CCC (stereo not given) , T/C reported as 93 % of control

Entry `CSc1nc(N)c2c(n1)nc(N(C)C)n2O` , T/C reported as 95 % of control

----------
Would you mind telling me the reported T/C of each entry?
system: CD2F1 mice, L1210 leukemia ip, survival T/C; experiment: NCI In Vivo Anticancer Drug Screen. Data for tumor model L1210 Leukemia (intraperitoneal) in CD2F1 (CDF1) mice; conditions: endpoint: mean survival time; dose: 100.0 mg/kg/injection; schedule: Q01DX001 (ip); vehicle: saline with Tween-80; higher = longer survival
Toxic doses and inconclusive results are not listed.

Record `COc1ccc(/C=C/C(=O)O)cc1` / CD2F1 mice, L1210 leukemia ip, survival T/C, T/C recorded as 102 % of control

Record CC[N+]1(C2CCC3CCC2C3O)CCOCC1 (stereo unspecified) / CD2F1 mice, L1210 leukemia ip, survival T/C, T/C recorded as 100 % of control

Record `CCCCCCCCCCCCCCCCOc1ccc(OCCCCCCCCCCCCCCC)cc1` / CD2F1 mice, L1210 leukemia ip, survival T/C, T/C recorded as 88 % of control

Record CC(=O)OC1CC2C=CCC21 (stereo unspecified) / CD2F1 mice, L1210 leukemia ip, survival T/C, T/C recorded as 100 % of control

Record CC(=O)C1C(c2ccccc2)=C(c2ccccc2)c2ccccc21 (stereo unspecified) / CD2F1 mice, L1210 leukemia ip, survival T/C, T/C recorded as 88 % of control

Record `O=C(O)c1ccc(N/N=C/C(F)(F)F)cc1` / CD2F1 mice, L1210 leukemia ip, survival T/C, T/C recorded as 95 % of control

Record CCC1(C#CCN2C(=O)c3ccccc3C2=O)C=CC2(CC1)OCCO2 (stereo unspecified) / CD2F1 mice, L1210 leukemia ip, survival T/C, T/C recorded as 101 % of control

Record `CCS(=O)(=O)C(C)S(=O)(=O)CC` / CD2F1 mice, L1210 leukemia ip, survival T/C, T/C recorded as 100 % of control

Record CCC1(C)CCC2=C(CCC3C(C)(C(=O)OC)CCCC23C)C1 (stereo unspecified) / CD2F1 mice, L1210 leukemia ip, survival T/C, T/C recorded as 93 % of control

Record `COc1ccc(NC(=O)c2ccc(S(=O)(=O)F)cc2)cc1` / CD2F1 mice, L1210 leukemia ip, survival T/C, T/C recorded as 97 % of control

Record `Nc1nc2c(ncn2-c2ccc(O)cc2)c(=O)[nH]1` / CD2F1 mice, L1210 leukemia ip, survival T/C, T/C recorded as 96 % of control

Record COCC(O)CN1CCN(c2cccc3c2CCCC3)CC1 (stereo unspecified) / CD2F1 mice, L1210 leukemia ip, survival T/C, T/C recorded as 97 % of control

Record `O=[N+]([O-])c1ccc(Sc2ccc(Br)cc2)cc1` / CD2F1 mice, L1210 leukemia ip, survival T/C, T/C recorded as 97 % of control

Record `COC(=O)c1ccc(OC)c2nc3c(C=O)c(OC)c(C)c(OC)c3nc12` / CD2F1 mice, L1210 leukemia ip, survival T/C, T/C recorded as 94 % of control

Record `CCCCN(C)CCNc1cc(C)nc(Nc2nc3ccc(Cl)cc3[nH]2)n1` / CD2F1 mice, L1210 leukemia ip, survival T/C, T/C recorded as 90 % of control

Record COc1cc(C=O)ccc1OC1OC(C(COC(C)=O)OC(C)=O)C(OC(C)=O)C(OC(C)=O)C1OC(C)=O (stereo unspecified) / CD2F1 mice, L1210 leukemia ip, survival T/C, T/C recorded as 88 % of control

Record `Cc1ccc(N=Nc2sc(N)nc2-c2cccc([N+](=O)[O-])c2)cc1` / CD2F1 mice, L1210 leukemia ip, survival T/C, T/C recorded as 89 % of control

Record CC1CCC(NC(=O)NCCCl)CC1 (stereo unspecified) / CD2F1 mice, L1210 leukemia ip, survival T/C, T/C recorded as 98 % of control

Record `COC1=C(c2ccccc2)/C(=C/c2ccccc2)OC1=O` / CD2F1 mice, L1210 leukemia ip, survival T/C, T/C recorded as 104 % of control

Record `CC(=O)Oc1cc(-c2ccccc2)c(OC(C)=O)c(N=[N+]=[N-])c1C` / CD2F1 mice, L1210 leukemia ip, survival T/C, T/C recorded as 101 % of control

Record `COC(=O)COS(=O)(=O)c1ccc(C)cc1` / CD2F1 mice, L1210 leukemia ip, survival T/C, T/C recorded as 95 % of control

Record Cc1ccc(C(=O)C2OC2c2ccccc2)cc1 (stereo unspecified) / CD2F1 mice, L1210 leukemia ip, survival T/C, T/C recorded as 94 % of control

Record `O=[C-]CC(=O)c1ccccc1.O=[C-]CC(=O)c1ccccc1.[Fe+2]` / CD2F1 mice, L1210 leukemia ip, survival T/C, T/C recorded as 95 % of control

Record `NC(N)=NC(N)=Nc1ccc(-c2ccccc2)cc1` / CD2F1 mice, L1210 leukemia ip, survival T/C, T/C recorded as 93 % of control

Record `CC(=O)OCCCOC(C)=O` / CD2F1 mice, L1210 leukemia ip, survival T/C, T/C recorded as 93 % of control

Record CCCCCC(C)C1=NC(C)(C)CC(C)O1 (stereo unspecified) / CD2F1 mice, L1210 leukemia ip, survival T/C, T/C recorded as 97 % of control
